Cited source: patent US4714705A

Measured change in vivo at 1.2 mg/kg, listed per entry.
- Tested on: adult mongrel dogs
- experiment summary: Renal vasodilating activity in anesthetized dogs
- Type: in vivo, dog (adult mongrel)
- particulars: Canis lupus familiaris; 1.2 mg/kg intravenous, relative to controls; read-out: RBF, renal blood flow
endpoint: change in vivo at 1.2 mg/kg (%)

# compound, target system, endpoint, reading unit, recorded measurement
rows = [
    ("O=[N+]([O-])c1c(O)ncc2cc3c(cc12)OCO3 [Compound BC]", "adult mongrel dogs", "change in vivo at 1.2 mg/kg", "%", 20),
    ("CCCCCCCCNC(=O)Nc1c(O)nc(C)c2cc(OC)c(OC)cc12 [BBF]", "adult mongrel dogs", "change in vivo at 1.2 mg/kg", "%", 19),
    ("C=CCNC(=O)Nc1c(O)nc(C)c2cc(OC)c(OC)cc12 [BAO]", "adult mongrel dogs", "change in vivo at 1.2 mg/kg", "%", 96),
    ("COc1cc2c([N+](=O)[O-])c(O)nc(C)c2c(OC)c1OC [BE]", "adult mongrel dogs", "change in vivo at 1.2 mg/kg", "%", 60),
    ("COc1cc2c(C)nc(O)c(NC(=O)Nc3ccc(C#N)cc3)c2cc1OC [BBX]", "adult mongrel dogs", "change in vivo at 1.2 mg/kg", "%", 12),
    ("COc1cc2c(C)nc(O)c(NC(=O)Nc3ccc([S+](C)[O-])cc3)c2cc1OC (stereo not drawn) [Compound BCB, Hydrate]", "adult mongrel dogs", "change in vivo at 1.2 mg/kg", "%", 12),
    ("CCNC(=O)Nc1c(O)nc(C)c2cc(OC)c(OC)cc12 [BCD]", "adult mongrel dogs", "change in vivo at 1.2 mg/kg", "%", 28),
    ("COc1ccc(NC(=O)Nc2c(O)nc(C)c3cc(OC)c(OC)cc23)c(OC)c1 [BAP]", "adult mongrel dogs", "change in vivo at 1.2 mg/kg", "%", 17),
    ("COc1ccc(NC(=O)Nc2c(O)nc(C)c3cc(OC)c(OC)cc23)cc1OC [BBL]", "adult mongrel dogs", "change in vivo at 1.2 mg/kg", "%", 13),
]

----------
change in vivo at 1.2 mg/kg values for the compounds below.
- Test system: adult mongrel dogs
- experiment summary: Renal vasodilating activity in anesthetized dogs
- Format: in vivo, dog (adult mongrel)
- particulars: Canis lupus familiaris; 1.2 mg/kg intravenous, relative to controls; read-out: RBF, renal blood flow

# compound, target system, change in vivo at 1.2 mg/kg (%)
measured = [
    ("CNC(=O)Nc1c(O)nc(C)c2cc(OC)c(OC)cc12 [BBY]", "adult mongrel dogs", 21),
    ("COc1cc2c(C)nc(O)c(NC(=O)Nc3ccc([N+](=O)[O-])cc3)c2cc1OC [BAR]", "adult mongrel dogs", 9),
    ("COc1ccc(NC(=O)Nc2c(O)nc(C)c3cc(OC)ccc23)cc1 [BBS]", "adult mongrel dogs", 17),
    ("COc1cc2c(C)nc(O)c(N)c2cc1OC [Compound BBQ]", "adult mongrel dogs", 22),
    ("COc1cc2c(C)nc(O)c(NC(=O)Nc3ccc(C(=O)O)cc3)c2cc1OC [Compound BCA, Hydrate]", "adult mongrel dogs", 40),
    ("COc1cc2c(C)nc(O)c(NC(=O)Nc3ccc(N)cc3)c2cc1OC [BBZ]", "adult mongrel dogs", 22),
    ("COc1ccc(NC(=O)Nc2c(O)ncc3cc(OC)c(OC)cc23)cc1 [BBG]", "adult mongrel dogs", 15),
    ("COc1cc2c(C)nc(O)c(NC(=O)NC3CCCCC3)c2cc1OC [BBE]", "adult mongrel dogs", 24),
]
